Entries with their measured MIC, system Septoria tritici (ATCC 26517):

Answered examples (2):
> print(dat)
                                   compound          reported
1  CC#CCOc1ccc(C(F)(F)C(O)(Cn2cnnn2)c2ccc(Cl)cc2F)nc1 (centres unmarked) [Compound 63]       ≤ 0.5 µg/mL
2  COc1ccc(C(F)(F)C(O)(Cn2cnnn2)c2ccc(F)cc2F)nc1 (centres unmarked) [Compound 8]  0.5 to 1.5 µg/mL

Input line: For Septoria tritici (ATCC 26517), provide MIC of N#Cc1ncc(Oc2ccc(C(F)(F)C(O)(Cn3cnnn3)c3ccc(F)cc3F)nc2)cn1 (centres unmarked) [Compound 100] please.
Output line: 0.5 to 1.5 µg/mL

Input line: For Septoria tritici (ATCC 26517), provide MIC of N#Cc1ccc(Oc2ccc(C(F)(F)C(O)(Cn3cnnn3)c3ccc(F)cc3F)nc2)cc1 (centres unmarked) [Compound 5] please.
Output line: ≤ 0.5 µg/mL
